assay: in vivo; conditions: Cyprinodon variegatus (sheepshead minnow, larval), second experiment, as starting glutaraldehyde concentration, solutions mixed for 48 hours prior to bioassay
recorded.endpoint: LC50 at 96 h (µg/mL)

- O=CCCCC=O: 25

###

system: bacterial inoculum; type: cell-based; details: with 10 ppm glutaraldehyde, two moles nitrogen compound per glutaraldehyde; n-C16; Time 6 days
recorded.endpoint: Growth, Neutralization of Biocides with Nitrogen Compounds

• OCCNCCO = +
• NCCO = +
• CCNCC = +
• Nc1ccccc1 = −

###

system: bacterial inoculum; format: cell-based; conditions: with 10 ppm glutaraldehyde, two moles nitrogen compound per glutaraldehyde; n-C16; Time 1 days
recorded.endpoint: Growth, Neutralization of Biocides with Nitrogen Compounds

• OCCNCCO = +
• Nc1ccccc1 = −
• CCNCC = −
• NCCO = −

###

compounds and their reported LC50 at 96 h
assay: in vivo; details: Cyprinodon variegatus (sheepshead minnow, larval), 96 h, control experiment, separate compounds
recorded.endpoint: LC50 at 96 h (µg/mL)

* NCCO [MEA, Monoethanolamine] | 1500
* O=CCCCC=O [G, glutaraldehyde] | 26

###

system: bacterial inoculum; assay type: cell-based; conditions: control without glutaraldehyde; n-C16; Time 20 days
recorded.endpoint: Growth, nitrogen compound control

• Nc1ccccc1 [aniline, Aniline] = −
• CCNCC [diethylamine, Diethylamine] = +
• OCCNCCO [DEA, Diethanolamine] = −
• NCCO [MEA, Monoethanolamine] = +

###

tested on: bacterial inoculum; type: cell-based; conditions: with 10 ppm glutaraldehyde, two moles nitrogen compound per glutaraldehyde; n-C16; Time 2 days
recorded.endpoint: Growth, Neutralization of Biocides with Nitrogen Compounds

- Nc1ccccc1 [aniline, Aniline]: −
- OCCNCCO [DEA, Diethanolamine]: +
- CCNCC [diethylamine, Diethylamine]: −
- NCCO [MEA, Monoethanolamine]: −

###

test system: bacterial inoculum; format: cell-based; settings: control without glutaraldehyde; n-C16; Time 6 days
recorded.endpoint: Growth, nitrogen compound control

* Nc1ccccc1 | −
* NCCO | −
* CCNCC | +
* OCCNCCO | +

###

system: bacterial inoculum; assay type: cell-based; conditions: with 10 ppm glutaraldehyde, two moles nitrogen compound per glutaraldehyde; n-C16; Time 13 days
recorded.endpoint: Growth, Neutralization of Biocides with Nitrogen Compounds

* Nc1ccccc1 | −
* OCCNCCO | +
* NCCO | +
* CCNCC | +
